target entity: BSA (Bos taurus, UniProt P02769)
Sequence (P02769 25-607): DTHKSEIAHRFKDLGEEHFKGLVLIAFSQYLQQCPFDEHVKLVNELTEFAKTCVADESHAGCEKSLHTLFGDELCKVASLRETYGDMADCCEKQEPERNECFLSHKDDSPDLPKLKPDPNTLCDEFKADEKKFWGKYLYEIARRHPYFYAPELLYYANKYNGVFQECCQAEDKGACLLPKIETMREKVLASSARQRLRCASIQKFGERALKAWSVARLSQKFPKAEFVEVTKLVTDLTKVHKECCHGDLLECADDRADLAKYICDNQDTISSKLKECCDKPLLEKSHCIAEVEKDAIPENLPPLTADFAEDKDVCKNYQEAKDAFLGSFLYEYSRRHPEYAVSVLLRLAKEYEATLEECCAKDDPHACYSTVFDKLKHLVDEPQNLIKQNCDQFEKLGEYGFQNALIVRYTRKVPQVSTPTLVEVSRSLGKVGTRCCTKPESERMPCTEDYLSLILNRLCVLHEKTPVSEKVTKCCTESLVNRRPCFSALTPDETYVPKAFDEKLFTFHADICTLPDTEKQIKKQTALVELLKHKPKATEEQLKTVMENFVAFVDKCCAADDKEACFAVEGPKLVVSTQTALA
assay explanation: Absorbance/emission spectra, fluorescence enhancement and quantum yield of dyes in solution +/- BSA (Example 21)
Assay type: physicochemical, bovine
test parameters: 150 μg/mL BSA, 10 mM Tris-HCl, pH 7.5, 0.05% SDS
readout name: ABS λ max, BSA (nm)
Give the value in nm but do not write nm after it.

compound | ABS λ max, BSA [nm]
CCOCC(=O)CCC[n+]1ccc(/C=C/c2ccc3c(c2)c2ccccc2n3CC)c2ccccc21.[Br-] [Compound 10] | 492
CCn1c2ccccc2c2cc(/C=C/c3sc4ccccc4[n+]3CCCS(=O)(=O)[O-])ccc21 [Compound 14] | 464
CCn1c2ccccc2c2cc(/C=C/c3cc[n+](CCCC(=O)O)c4ccccc34)ccc21.[Cl-] [Compound 11] | 483
O=S(=O)([O-])CCCC[n+]1ccc(/C=C/c2ccc3c(c2)c2ccccc2n3-c2ccccc2)c2ccccc21 [Compound 15] | 469

Name the recorded ABS λ max, BSA of the compound listed here: CCCCc1cc(/C=C/c2ccc3c(c2)c2ccccc2n3CC)c2ccccc2[n+]1-c1ccccc1.[Cl-] [Compound 16]
491

Name the recorded ABS λ max, BSA of the compound listed here: CCn1c2ccccc2c2cc(/C=C/c3cc[n+](CCCCS(=O)(=O)[O-])c4ccccc34)ccc21 [Compound 9]
480

Name the recorded ABS λ max, BSA of the compound listed here: CCn1c2ccccc2c2cc(/C=C/c3ccc4ccccc4[n+]3CCCCS(=O)(=O)[O-])ccc21 [Compound 12]
453

Name the recorded ABS λ max, BSA of the compound listed here: CCn1c2ccccc2c2cc(/C=C/C3=[N+](CCCCCC(=O)O)c4ccc(S(=O)(=O)[O-])cc4C3(C)C)ccc21 [Compound 18]
502

---

target entity: BSA (Bos taurus, UniProt P02769)
assay explanation: Absorbance/emission spectra, fluorescence enhancement and quantum yield of dyes in solution +/- BSA (Example 21)
Format: physicochemical, bovine
test parameters: dye without BSA, 10 mM Tris-HCl, pH 7.5, 0.05% SDS
readout name: ABS λ max, unbound

Recorded results for 3 compounds are shown here.
compound | readout name | experimental value
CCn1c2ccccc2c2cc(/C=C/c3ccc4ccccc4[n+]3CCCCS(=O)(=O)[O-])ccc21 [Compound 12] | ABS λ max, unbound | 441 nm
O=S(=O)([O-])CCCC[n+]1ccc(/C=C/c2ccc3c(c2)c2ccccc2n3-c2ccccc2)c2ccccc21 [Compound 15] | ABS λ max, unbound | 468 nm
CCn1c2ccccc2c2cc(/C=C/C3=[N+](CCCCCC(=O)O)c4ccc(S(=O)(=O)[O-])cc4C3(C)C)ccc21 [Compound 18] | ABS λ max, unbound | 503 nm

Then this compound:
Name the recorded ABS λ max, unbound of the compound listed here: CCOCC(=O)CCC[n+]1ccc(/C=C/c2ccc3c(c2)c2ccccc2n3CC)c2ccccc21.[Br-] [Compound 10]
468 nm

---

target entity: BSA (Bos taurus, UniProt P02769)
assay explanation: Absorbance/emission spectra, fluorescence enhancement and quantum yield of dyes in solution +/- BSA (Example 21)
Assay type: physicochemical, bovine
test parameters: dye without BSA, 10 mM Tris-HCl, pH 7.5, 0.05% SDS
readout name: EM λ max, unbound

molecule | target entity | experimental value
CCn1c2ccccc2c2cc(/C=C/c3cc[n+](CCCCS(=O)(=O)[O-])c4ccccc34)ccc21 [Compound 9] | BSA (Bos taurus, UniProt P02769) | ~700 nm
CCn1c2ccccc2c2cc(/C=C/c3ccc4cc(OC)ccc4[n+]3C)ccc21 [Compound 17] | BSA (Bos taurus, UniProt P02769) | 679 nm

Then this molecule:
Name the recorded EM λ max, unbound of the molecule listed here: CCn1c2ccccc2c2cc(/C=C/c3cc[n+](CCCC(=O)O)c4ccccc34)ccc21.[Cl-] [Compound 11]
~700 nm
